- Tested on: platelet aggregation
- Protocol Description: Platelet aggregation-inhibitory activity in vitro (collagen-induced, rat platelet rich plasma)
- Assay type: cell-based
- Assay Conditions: 3 × 10^-7 M, read-out: in vitro Inhibitory ratio
- Description: Platelet aggregation-inhibitory activity in vitro Rat arterial blood was centrifuged to obtain platelet rich plasma. Platelet aggregation inhibitory ratio was calculated by the following formula: [formula] Tc: Aggregation degree where only a solvent was added. Ts: Aggregation degree where a solution of the test compound was added.
Classify by measured inhibition at 0.3 µM: Fulfilled if it is equal to or exceeds 90%, Not fulfilled if it is smaller.

Hello, I need to know if CCCC(Nc1nnc(-c2ccccc2)c2ccccc12)c1ccccc1 (racemic) has measured inhibition at 0.3 µM not below 90%. Thanks! Fulfilled

Hello, I need to know if CC(Nc1nnc(-c2ccccc2)c2ccccc12)c1ccc(Cl)cc1 (racemic) has measured inhibition at 0.3 µM not below 90%. Thanks! Fulfilled

Hello, I need to know if COc1ccc(C(C)Nc2nnc(-c3ccccc3)c3ccccc23)cc1OC (racemic) has measured inhibition at 0.3 µM not below 90%. Thanks! Fulfilled

Hello, I need to know if CC(Nc1nnc(-c2ccccc2)c2ccccc12)c1ccc(F)cc1 (racemic) has measured inhibition at 0.3 µM not below 90%. Thanks! Fulfilled

Hello, I need to know if CC(Nc1nnc(-c2ccccc2)c2ccccc12)c1ccccc1Cl (racemic) has measured inhibition at 0.3 µM not below 90%. Thanks! Not fulfilled

Hello, I need to know if CC(Nc1nnc(-c2ccccc2)c2ccccc12)c1ccc2c(c1)OCO2 (racemic) has measured inhibition at 0.3 µM not below 90%. Thanks! Fulfilled

Hello, I need to know if COc1ccc(C(C)Nc2nnc(-c3ccccc3)c3ccccc23)cc1 (racemic) has measured inhibition at 0.3 µM not below 90%. Thanks! Not fulfilled
